B1: NEUROD6 (parent)
chain: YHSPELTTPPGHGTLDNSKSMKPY

# Variants of: B1
# experimental protocol: protein stability index of a GFP-peptide fusion (GPS, HEK-293T) (PSI 1-6); higher = more stable;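 note: lentivirally expressed fusions sorted by FACS into six bins by GFP to DsRed ratio, PSI derived from sequencing read proportions per bin multiplied by bin number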
# condition set: c terminus: a fixed tail appended
Readings of protein stability index for the listed variants

>  <residue change>
H12F

>  <protein stability index>
1.97

$$$$
>  <residue change>
G11H

>  <protein stability index>
1.99

$$$$
>  <residue change>
T8V

>  <protein stability index>
2.04

$$$$
>  <residue change>
N17H

>  <protein stability index>
1.99

$$$$
>  <residue change>
T8S

>  <protein stability index>
2

$$$$
>  <residue change>
T8C

>  <protein stability index>
2.01

$$$$
